System: human A549 cells
Experiment: Protective effect against cell injury induced by oxidized LDL in human A549 cells (LDH leakage)
Format: cell-based
Conditions: Homo sapiens, 3 μmol/L test compound, oxidized LDL 100 μg/mL, 24 hours, average ± standard error, read-out: % Cell protection in the case where oxidized LDL was added immediately after adding test compound
observation_type: inhibition at 3 µM (%)
Write down the numeric answer in % and omit the unit.

// below: answered compounds
[
  {
    "smiles_entry": "CC1(C)Cc2c(c(C(C)(C)C)cc(O)c2C(C)(C)C)O1",
    "result_units": "%",
    "inhibition at 3 µM": 99.1
  },
  {
    "smiles_entry": "CC(C)(C)c1cc2c(c(C(C)(C)C)c1O)CC1(CCCCC1)S2",
    "result_units": "%",
    "inhibition at 3 µM": 11.3
  },
  {
    "smiles_entry": "CC(C)(C)c1cc2c(c(C(C)(C)C)c1O)CC1(CCCCCC1)O2",
    "result_units": "%",
    "inhibition at 3 µM": -0.8
  },
  {
    "smiles_entry": "CC(C)(C)c1cc2c(c(C(C)(C)C)c1O)CCO2",
    "result_units": "%",
    "inhibition at 3 µM": 40.4
  }
]

Please find the next compound below.
Query: inhibition at 3 µM; subject: CC(C)(C)c1cc2c(c(C(C)(C)C)c1O)CC1(CCCC1)O2 -1.5

---

Test system: human A549 cells
Experiment: Protective effect against cell injury induced by oxidized LDL in human A549 cells (LDH leakage)
Assay type: cell-based
Conditions: Homo sapiens, 3 μmol/L test compound, oxidized LDL 100 μg/mL, 24 hours, average ± standard error, read-out: % Cell protection in the case where oxidized LDL was added 6 hrs after adding test compound
Each entry below carries its reported inhibition at 3 µM.
Just the number plus its unit, please.

[
  {
    "compound": "CC(C)(C)c1cc2c(c(C(C)(C)C)c1O)CC1(CCOCC1)O2 [Compound 8]",
    "observation_type": "inhibition at 3 µM",
    "recorded_value": "10.6%"
  },
  {
    "compound": "CC(C)(C)c1cc2c(c(C(C)(C)C)c1O)CC1(CCOCC1)S2 [Compound 14]",
    "observation_type": "inhibition at 3 µM",
    "recorded_value": "7%"
  },
  {
    "compound": "CC(C)(C)c1cc2c(c(C(C)(C)C)c1O)CC(Cc1ccccc1)(Cc1ccccc1)O2 [Compound 4]",
    "observation_type": "inhibition at 3 µM",
    "recorded_value": "6.1%"
  },
  {
    "compound": "CC(C)(C)c1cc2c(c(C(C)(C)C)c1O)CC1(CCSCC1)O2 [Compound 11]",
    "observation_type": "inhibition at 3 µM",
    "recorded_value": "3.5%"
  },
  {
    "compound": "CC(C)(C)c1cc2c(c(C(C)(C)C)c1O)CCO2 [Compound 1]",
    "observation_type": "inhibition at 3 µM",
    "recorded_value": "11.3%"
  }
]

// query inhibition at 3 µM value for entry CC(C)(C)c1cc2c(c(C(C)(C)C)c1O)CC1(CCCCC1)O2 [Compound 10] -0.7%

Here is the next compound: CC1(C)Cc2c(cc(C(C)(C)C)c(O)c2C(C)(C)C)S1 [Compound 12] 9.9%

Try this compound too: CC1(C)Cc2c(c(C(C)(C)C)cc(O)c2C(C)(C)C)O1 [Compound 16] 100%

Further, for CC1(C(=O)O)Cc2c(cc(C(C)(C)C)c(O)c2C(C)(C)C)O1 (stereo not drawn) [Compound 6] ? 8.5%
